target: human EP2 receptors (Homo sapiens); construct: expressed in transfected cells; host or cells: HEK 293; assay: Competition radioligand binding ([3H]PGE2), EP2; settings: unit inferred; read-out: EP2 data Ki
Sequence (P43116 whole entry): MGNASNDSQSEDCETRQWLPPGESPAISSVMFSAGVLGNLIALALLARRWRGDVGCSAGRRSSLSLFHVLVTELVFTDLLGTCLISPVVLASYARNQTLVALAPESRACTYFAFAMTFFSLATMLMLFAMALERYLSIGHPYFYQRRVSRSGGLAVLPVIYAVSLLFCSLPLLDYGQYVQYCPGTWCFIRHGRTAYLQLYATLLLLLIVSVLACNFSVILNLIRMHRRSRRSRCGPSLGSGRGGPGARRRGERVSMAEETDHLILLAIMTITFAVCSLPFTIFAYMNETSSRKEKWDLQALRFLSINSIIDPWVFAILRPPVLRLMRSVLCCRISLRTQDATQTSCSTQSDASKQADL
pKi: −log10 of the molar value.
measurement_name: pKi

Reference set (2 entries):
molecule	pKi
CCCCCC(=O)c1ccc(N2C(=O)CC[C@@H]2CCCc2ccc(C(=O)O)s2)cc1	7.51
CCCCCC(O)c1ccc(N2C(=O)CC[C@@H]2CCCc2ccc(C(=O)O)s2)cc1 (some centres unmarked) [drawing 173]	7.64

[1] CCCCCC(O)c1ccc(N2C(=O)CC[C@@H]2COCc2ccc(C(=O)O)s2)cc1 (single isomer, unassigned) [drawing 148]
[2] CCCCCCC(O)c1ccc(N2C(=O)CC[C@@H]2CCCc2ccc(C(=O)O)s2)cc1 (single isomer, unassigned) [drawing 184]
Hi there, can you help? I need to know whether 1 or 2 has lower measured pKi. // respond with label for picked entry 1
